The reported numbers originate from PubChem BioAssay (NCI).

system: IGROV1 ovarian; experiment: NCI-60 one-dose screen, 48 h; conditions: 10 µM unless noted
Compounds without any hit were thinned out: in the full panel of roughly 83,000, 20% have a hit. Activity calls are given as the source filed them. The calls were made as follows: active = growth percent below 10; inactive = the rest.
Hello, when you answer, please use one of the following outcomes: true for active, false for inactive

Example entries and their recorded answers appear below.
INSERT INTO measurements (compound, category_label) VALUES
  ('Cc1ccc(-c2cc3nc(C(Cl)Cl)nc(-c4ccc(S(=O)(=O)N(C)C)cc4)n3n2)cc1', 'false'),
  ('NS(=O)(=O)c1nnc(/N=C/c2c(O)[nH]c3ccccc23)s1', 'false'),
  ('COc1ccc(/C=N/NC(=O)CSc2nc(-c3cnccn3)cc(-c3cccs3)c2C#N)cc1OC', 'false'),
  ('COc1ccc(OC)c(CCn2cncc2-c2c[nH]c3ccc(Cl)cc23)c1', 'false'),
  ('O=C1[C@@H]2Cc3c([nH]c4ccccc34)[C@H](c3ccc(Br)cc3)N2C(=O)CN1C1CCN(Cc2c(Cl)cccc2Cl)CC1', 'false'),
  ('COc1cc(/C=C2/C(=O)Nc3ccc(Cl)cc32)ccc1OCc1ccc(Cl)cc1', 'false');

Qu. What classification did `COc1cc(/C=N\NC(=O)c2ccc3nc(-c4ccc(Br)cc4)[nH]c3c2)cc(OC)c1OC` end up with in this test?
Ans. false

Qu. Test call for this compound, please: `Cc1cccc(N2CCN(C3=C(Cl)C(=O)c4ncccc4C3=O)CC2)c1`
Ans. false

Qu. For this compound, state the assay outcome: CC(=O)C1=C(C)NC(NNc2ccccc2)=NC1c1ccc([N+](=O)[O-])cc1 (centres undefined)
Ans. false

Qu. Could you check what this test reported for `CCOC(=O)c1c(N)c(C#N)cn1Cc1ccc(Cl)cc1Cl` ?
Ans. false

Qu. What outcome does the record of this test show for `Cc1ncn(-c2ccc(/C=N/Nc3ccnc4cc(Cl)ccc34)cc2)c1C` ?
Ans. false

Qu. Please state the recorded outcome for this compound: COc1ccc(C2CC(c3cccc(OCCCCOc4cccc(C5=NN(C(C)=O)C(c6ccc(OC)cc6)C5)c4)c3)=NN2C(C)=O)cc1 (centres undefined)
Ans. false

Qu. Name the outcome recorded for `N#C/C(=N\Nc1ccc(F)cc1)C(=O)Nc1cc(-c2ccccc2)nn1-c1ccccc1` in the assay.
Ans. false

Qu. Called result for `COC(=O)CNC(=O)c1cccc(-c2cc(=O)c3c(OC)c(OC)c(OC)cc3o2)c1`
Ans. false

Qu. Could you kindly confirm the outcome this assay logged for `O=C(CCCCCCN1CC(=O)N2[C@@H](c3ccccc3Br)c3[nH]c4ccccc4c3C[C@H]2C1=O)NO` ?
Ans. false

Qu. Status in this test for `Cc1ccc2c(n1)C(=O)C(Cl)=C(Nc1cccc(C(F)(F)F)c1)C2=O` ?
Ans. true

Qu. For `O=C1C(N2CCN(c3ccccc3)CC2)=C(Cl)C(=O)c2ncccc21` , what call appears in the results of this test?
Ans. false

Qu. Per the assay record, what outcome was assigned to `CCN(CC)CCOc1ccc(C(=C(C)c2ccc(OC)cc2)c2ccc(OCCN(CC)CC)cc2)cc1` ?
Ans. true

Qu. What is the recorded call for this compound in the test? `CSc1ccc(C(=NNS(=O)(=O)c2ccc(C)cc2)c2ccc(Cl)cc2)cc1`
Ans. false

###

tested on: COLO 205 colon; experiment: NCI-60 one-dose screen, 48 h (100 = growth as untreated, 0 = no growth, -100 = all killed); conditions: 10 µM unless noted
The panel holds about 83,000 compounds, 20% with a hit somewhere; the sample as a whole holds those more often.
Response field class: enum, chosen by comparing growth against lower band = under 40%, central band = from 40% up to 90%, upper band = 90% and over

Qu. Please indicate the class for `O=C1[C@@H]2Cc3c([nH]c4ccccc34)[C@@H](c3ccc(Cl)cc3)N2C(=O)CN1C1CCN(Cc2ccccc2)CC1` based on its growth.
Ans. central band

Qu. # bin label for `CN1CCN(Cc2ccc(NC(=O)c3cncc(C#Cc4cnc5ccc(OC6CCOCC6)nn45)c3)cc2C(F)(F)F)CC1`
Ans. lower band

Qu. Given `C#C[C@]1(O)CC[C@H]2[C@@H]3CC=C4c5sc(Nc6cc(Cl)ccc6OC)nc5CC[C@]4(C)[C@H]3CC[C@@]21C` , name the class its growth places it in.
Ans. lower band

Qu. // return the class label for `COC(=O)c1ccc(NC2=C(Cl)C(=O)c3nc(C)ccc3C2=O)cc1`
Ans. upper band
